Tested on: tet operator sequence
experiment.description: β-galactosidase activity of a tetracycline-regulated promoter in transformed E. coli with revTetR, in the presence and absence of anhydrotetracycline (atc)
Assay type: cell-based, Escherichia coli
condition.parameters: RevTetR isolate cultured in the presence of anhydrotetracycline (ATC)
recorded.metric: β-Galactosidase Activity, Cultured With ATC
Please respond with just the number, no unit label.

input: I am curious: what β-Galactosidase Activity, Cultured With ATC value has been reported for TetRrevAF7/1: revTetR(BD) Y93C G96R K98N (protein, Modified tetracycline repressor, revTetR(BD) Y93C G96R K98N) MSRLDKSKVINSALELLNEVGIEGLTTRKLAQKLGVEQPTLYWHVKNKRALLDALAVEILARHHDYSLPAAGESWQSFLRNNAMSFRRALLRCRDRANVHLGTRPDEKQYDTVETQLRFMTENGFSLRDGLYAISAVSHFTLGAVLEQQEHTAALTDRPAAPDENLPPLLREALQIMDSDDGEQAFLHGLESLIRGFEVQLTALLQIV ?
output: 1.3792
